Recorded measurements of GI50, one per entry
Test system: TK-10
Assay procedure: NCI tumour cell line growth inhibition, 48 h
Active and inactive are the calls of the source. Cut-off read from the data, not from the text of the source: active = GI50 up to about 1.1 µM and inactive = higher.

[[record]]
molecule = "Cc1nnc(N)s/c1=N/O"
property = "GI50"
experimental_value = "> 100 µM (inactive)"


# return recorded GI50 for entry NC(CCCCNc1ccn(C2OC(CO)C(O)C2O)c(=O)n1)C(=O)O (stereo unspecified)
> 100 µM (inactive)

----------
System: SK-MEL-5
Assay procedure: NCI tumour cell line growth inhibition, 48 h
Active and inactive are the calls of the source. Rule as the data show it: active = GI50 up to about 1.1 µM and inactive = higher.
Property: GI50

Check out these entries, answers already filled in.
[[record]]
molecule = "O=C1OC(c2ccc(O)c(-c3ccccc3)c2)(c2ccc(O)c(-c3ccccc3)c2)c2c(Cl)c(Cl)c(Cl)c(Cl)c21"
property = "GI50"
experimental_value = "> 100 µM (inactive)"

[[record]]
molecule = "O=C1[C@H]2ON(c3ccccc3)C(c3ccc(Cl)cc3Cl)[C@H]2C(=O)N1c1ccc(Cc2ccc(N3C(=O)[C@@H]4ON(c5ccccc5)C(c5ccc(Cl)cc5Cl)[C@@H]4C3=O)cc2)cc1 (stereo partly drawn)"
property = "GI50"
experimental_value = "73.1 µM (inactive)"


Now, please, on to the next molecule.
# return recorded GI50 for entry O=C1CSC2(CC(/C=C/c3ccccc3)=NN2c2cccc(S(=O)(=O)O)c2)N1c1nc2ccccc2s1 (stereo not drawn)
44.6 µM (inactive)

----------
Tested on: IGROV-1
Assay procedure: NCI tumour cell line growth inhibition, 48 h
Activity calls are given as the source filed them. Rule as the data show it: active = GI50 up to about 1.1 µM and inactive = higher.
Recorded measurements of GI50, one per entry

# return recorded GI50 for entry "CNC(=O)CCCNC(=O)CCCC(=O)OC"
> 100 µM (inactive)

----------
System: HCT-116
Assay procedure: NCI tumour cell line growth inhibition, 48 h
The source made the active and inactive calls. Cut-off read from the data, not from the text of the source: active = GI50 up to about 1.1 µM and inactive = higher.
Recorded measurements of GI50, one per entry

[[record]]
compound = "O=C(CN1CCN(Cc2ccccc2)CC1)N1CCCn2c1nc1ccccc1c2=O"
property = "GI50"
experimental_value = "> 100 µM (inactive)"

[[record]]
compound = "COc1ccc(C2C(Cl)C(=O)N2NC(=O)Cc2ccccc2)cc1OC (stereo unspecified)"
property = "GI50"
experimental_value = "> 100 µM (inactive)"

[[record]]
compound = "Clc1nncc2sc(-c3ccccc3)nc12"
property = "GI50"
experimental_value = "16.9 µM (inactive)"

[[record]]
compound = "O=NN(Cc1ccc(Cl)cc1)C(C(=O)O)c1ccccc1 (stereo unspecified)"
property = "GI50"
experimental_value = "> 100 µM (inactive)"

[[record]]
compound = "CC1(C)CC2(CC(C)(C)N1O)NC(=O)OC2=O"
property = "GI50"
experimental_value = "> 100 µM (inactive)"


Now, please, on to the next compound.
# return recorded GI50 for entry COCCN1C(=O)C2c3[nH]c4ccccc4c3C3CCC(C(C)(C)C)CC3C2C1=O (stereo unspecified)
16.4 µM (inactive)

----------
Tested on: MOLT-4
Assay procedure: NCI tumour cell line growth inhibition, 48 h
Calls of active or inactive are those of the source. Cut-off read from the data, not from the text of the source: active = GI50 up to about 1.1 µM and inactive = higher.
Recorded measurements of GI50, one per entry

Check out these entries, answers already filled in.
[[record]]
compound = "COC(=O)C1=C(O)C(C(=O)OC)[C@@]2(O)[C@@H](C(=O)OC)[C@H](C)[C@@H](C)[C@@H]1[C@@H]2C(=O)OC (some centres undefined)"
system_tested = "MOLT-4"
experimental_value = "> 100 µM (inactive)"

[[record]]
compound = "CSc1n[n+]2c(s1)SCCC2"
system_tested = "MOLT-4"
experimental_value = "> 100 µM (inactive)"

[[record]]
compound = "COC(OC)c1cc2c(cc1C=O)OCO2"
system_tested = "MOLT-4"
experimental_value = "> 100 µM (inactive)"


Now, please, on to the next compound.
Write GI50 of "NS(=O)(=O)c1ccc(/N=N/c2c(O)c(C(=O)O)cc3ccccc23)cc1" ; system used: MOLT-4
> 100 µM (inactive)
